# Tested on: Enterococcus sp.
# Assay protocol: In vitro antibacterial evaluation: minimum inhibitory concentration (MIC), broth dilution method
# Type: cell-based
# Test conditions: strain GC 2242
Observable: MIC Enterococcus faecalis (GC 2242)

Example cases with answers are listed next.
Compound: COc1cc(OC)cc(C2OC3C(OC4C(CO)OC(Oc5ccc(CC6NC(=O)C(C(C)c7ccccc7)NC(=O)CNC(=O)C(CO)NC(=O)C(C(O)C7CNC(=N)N7C7OC(CO)C(O)C(O)C7O)NC(=O)C(C(O)C7CNC(=N)N7)NC6=O)cc5)C(O)C4O)OC(CO)C(O)C3O2)c1 (stereo not drawn) [Example 150a]
MIC Enterococcus faecalis (GC 2242): >64 µg/mL
--
Compound: CC(c1ccccc1)C1NC(=O)CNC(=O)C(CO)NC(=O)C(C(O)C2CN(c3nc4ccccc4s3)C(=N)N2C2OC(CO)C(O)C(O)C2O)NC(=O)C(C(O)C2CNC(=Nc3nc4ccccc4s3)N2)NC(=O)C(Cc2ccc(OC3OC(CO)C(OC4OC(CO)C(O)C(O)C4O)C(O)C3O)cc2)NC1=O (stereo not drawn) [Example 94]
MIC Enterococcus faecalis (GC 2242): >64 µg/mL

// below: MIC Enterococcus faecalis (GC 2242) requested for another compound
Incoming: I am curious: what MIC Enterococcus faecalis (GC 2242) value has been reported for CCCCCCC(=O)OCC1OC(N2C(=N)NCC2C(O)C2NC(=O)C(C(O)C3CNC(=N)N3)NC(=O)C(Cc3ccc(OC4OC(CO)C(OC5OC(CO)C(O)C(O)C5O)C(O)C4O)cc3)NC(=O)C(C(C)c3ccccc3)NC(=O)CNC(=O)C(CO)NC2=O)C(O)C(O)C1O (stereo not drawn) [Example 97] ?
Outgoing: >64 µg/mL

* * *

# System: Streptococcus sp.
# Assay protocol: In vitro antibacterial evaluation: minimum inhibitory concentration (MIC), broth dilution method
# Assay type: cell-based
# Test conditions: strain GC 4564
Observable: MIC Streptococcus agalactiae (GC 4564)

Sample records with MIC Streptococcus agalactiae (GC 4564):
Compound: CC(c1ccccc1)C1NC(=O)CNC(=O)C(CO)NC(=O)C(C(O)C2CNC(=N)N2C2OC(CO)C(O)C(O)C2O)NC(=O)C(C(O)C2CNC(=N)N2)NC(=O)C(Cc2ccc(OC3OC(CO)C(OC4OC5COC(c6cccc(-c7ccccc7)c6)OC5C(O)C4O)C(O)C3O)cc2)NC1=O (stereo not shown)
MIC Streptococcus agalactiae (GC 4564): <0.06 µg/mL
--
Compound: CC(c1ccccc1)C1NC(=O)CNC(=O)C(CO)NC(=O)C(C(O)C2CNC(=N)N2C2OC(CO)C(O)C(O)C2O)NC(=O)C(C(O)C2CNC(=N)N2)NC(=O)C(Cc2ccc(OC3OC(CO)C(OC4OC5COC(c6ccc(-c7ccc(Cl)cc7)cc6)OC5C(O)C4O)C(O)C3O)cc2)NC1=O (stereo not shown)
MIC Streptococcus agalactiae (GC 4564): <0.06 µg/mL
--
Compound: CC(C)=CCCC(C)=CCOc1ccc(C2OCC3OC(OC4C(CO)OC(Oc5ccc(CC6NC(=O)C(C(C)c7ccccc7)NC(=O)CNC(=O)C(CO)NC(=O)C(C(O)C7CNC(=N)N7C7OC(CO)C(O)C(O)C7O)NC(=O)C(C(O)C7CNC(=N)N7)NC6=O)cc5)C(O)C4O)C(O)C(O)C3O2)cc1 (stereo not shown)
MIC Streptococcus agalactiae (GC 4564): <0.06 µg/mL

Attention now shifts to the item below.
Incoming: Can you share its MIC Streptococcus agalactiae (GC 4564)? I mean this compound: CC(c1ccccc1)C1NC(=O)CNC(=O)C(CO)NC(=O)C(C(O)C2CNC(=N)N2C2OC(CO)C(O)C(O)C2O)NC(=O)C(C(O)C2CNC(=NC(=O)C(C)(C)C)N2)NC(=O)C(Cc2ccc(OC3OC(CO)C(OC4OC(CO)C(O)C(O)C4O)C(O)C3O)cc2)NC1=O (stereo not shown)
Outgoing: <0.12 µg/mL
